// reported ED50 for each item listed
Test system: E. coli 205 R^+TEM
ASSAY TEXT: oral ED50, systemic infection in mice
ASSAY CONTEXT: Escherichia coli, in Mus musculus, read-out: oral ED50

{"columns": ["SMILES REPR", "ED50 [mg/kg]"],
 "data": [
  ["CC1=C(C(=O)O)N2C(=O)[C@@H](NC(=O)[C@H](N)C3=CCC=CC3)[C@H]2SC1", 16],
  ["COC1=C(C(=O)O)N2C(=O)[C@@H](NC(=O)[C@H](N)c3ccccc3)[C@H]2SC1", 48],
  ["CC1=C(C(=O)O)N2C(=O)[C@@H](NC(=O)[C@H](N)c3ccccc3)[C@H]2SC1", 40],
  ["COC1=C(C(=O)O)N2C(=O)[C@@H](NC(=O)[C@H](N)C3=CCC=CC3)[C@H]2SC1", 7.3]
]}

Values were extracted from patent US4073902A.
